- System: A549/ATCC NSCLC
- test_method_notes: NCI-60 one-dose screen, 48 h (100 = growth as untreated, 0 = no growth, -100 = all killed)
- applied_conditions: 10 µM
This is part of a sample that, as a whole, favours compounds with a hit. Of some 83,000 tested, about 20% had one in any assay.
Field: label. Allowed values: MET (growth < 50%) or NOT MET (growth >= 50%).

Q: # strict comparison: is reported growth < 50%? input = CC1CN(Cc2ccccc2)C(=O)NC1=O (stereo not drawn)
A: NOT MET

Q: # strict comparison: is reported growth < 50%? input = Clc1ccc(-c2cn(-c3ccccc3)c(-c3ccccc3)n2)c(Cl)c1
A: MET

Q: # strict comparison: is reported growth < 50%? input = Nc1nc(-c2ccccc2Cl)cc(-c2ccc(Cl)cc2Cl)n1
A: NOT MET

Q: # strict comparison: is reported growth < 50%? input = COc1ccc(C2=Nc3c(C)nn(-c4ccccc4)c3NC(c3ccc(Oc4ccnc5cc(Cl)ccc45)c(OC)c3)C2)cc1 (stereo not drawn)
A: NOT MET

Q: # strict comparison: is reported growth < 50%? input = CC12O[C@H](C[C@@H](O)[C@H]1O)n1c3ccccc3c3c4c(c5c6ccccc6n2c5c31)C(=O)N(CCCN)C4=O
A: MET

Q: # strict comparison: is reported growth < 50%? input = COc1cccc(Cn2c(-c3nonc3N)nc3ccccc32)c1
A: MET

Q: # strict comparison: is reported growth < 50%? input = CCCCCCNC(=O)Oc1ccc(/C(=C(/CC)Cc2ccccc2)c2ccc(OCCN3CCCCC3)cc2)cc1
A: NOT MET

---

Give growth for every item shown.
- Tested on: HCT-116 colon
- test_method_notes: NCI-60 one-dose screen, 48 h (100 = growth as untreated, 0 = no growth, -100 = all killed)
- applied_conditions: 10 µM
About 83,000 compounds went through this panel and 20% of them were active in at least one assay; those are over-represented in the sample as a whole. Calls of active or inactive are those of the source. The calls were made as follows: active = growth percent below 10; inactive = the rest.

Q: Find growth (HCT-116 colon) for the entry COc1ccc(OC)c(/C=C/c2nc(SCc3ccccc3)n(-c3ccc(Cl)cc3)n2)c1
A: 20.2% (inactive)

Q: Find growth (HCT-116 colon) for the entry CC12O[C@H](C[C@@H](OC(=O)c3ccccc3)[C@H]1O)n1c3ccccc3c3c4c(c5c6ccccc6n2c5c31)C(=O)NC4=O
A: 70.1% (inactive)

Q: Find growth (HCT-116 colon) for the entry CCCCCCCCCCCCCCCCCCOCC(COCCOCC[N+]1(CCCCCC(=O)[O-])CCCC1)Oc1ncccn1 (stereo not drawn)
A: 20.4% (inactive)

---

- Test system: NCI-H226 lung
- test_method_notes: NCI-60 one-dose screen, 48 h (100 = growth as untreated, 0 = no growth, -100 = all killed)
- applied_conditions: 10 µM
This is part of a sample that, as a whole, favours compounds with a hit. Of some 83,000 tested, about 20% had one in any assay.
measurement_name: growth (%)
Give your result in % as a bare value.

Q: // lookup growth for Cc1cc(N(CCCNc2ccnc3cc(Cl)ccc23)Cc2ccc3c(c2)OCO3)nc(N2CCOCC2)n1
A: 67.2

Q: // lookup growth for O=C(N/N=C/c1ccccc1)C(Oc1ccccc1)c1ccccc1 (configuration not stated)
A: 97.5

Q: // lookup growth for O=[N+]([O-])c1ccc(Oc2cc(Cl)c(Cl)cc2Cl)c(C(F)(F)F)c1
A: 94.6

Q: // lookup growth for CS(=O)(=O)Nc1cccc(-c2cc(-c3ccccc3Cl)c(C#N)c(N)n2)c1
A: 53.4

Q: // lookup growth for ClC(Cl)(Cl)c1nc2nccnc2[nH]1
A: 98.6

Q: // lookup growth for CN(C)c1ccc(/C=C/C=N/NC(=O)c2cc(O)c(O)c(O)c2)cc1
A: 101

Q: // lookup growth for c1ccc(CO[C@H]2CO[C@H]3[C@@H]2OC[C@H]3OCc2ccccc2)cc1
A: 101

Q: // lookup growth for NC(=O)CC1(c2ccccc2)CCCCC1
A: 110

Q: // lookup growth for Clc1ccc(/C=C2\CCCC3=C2N=C2SC=NN2C3c2ccc(Cl)cc2)cc1 (configuration not stated)
A: 107

Q: // lookup growth for COc1ccc(OC)c(/C=C/c2nc(SCc3ccccc3)n(-c3ccc(Cl)cc3)n2)c1
A: 72.7

Q: // lookup growth for CC[C@H](C)C(=O)O[C@H]1CCC=C2C=C[C@H](C)C(CCC3C[C@@H](O)CC(=O)O3)[C@H]21 (some centres not stated)
A: 76.8

Q: // lookup growth for COc1cc(NC(=O)CCSc2nc3ccc(Cl)cc3c(=O)n2Cc2ccccc2)cc(OC)c1OC
A: 31.1

Q: // lookup growth for O=C1/C(=C/c2ccc([N+](=O)[O-])s2)Oc2ccccc21
A: -0.59

Q: // lookup growth for FC(F)(F)c1ccc2nc(-c3nc(-c4ccccc4)n4ccccc34)[nH]c2c1
A: 99.4

Q: // lookup growth for COc1cc(C2CC(c3ccc(Nc4ccnc5cc(Cl)ccc45)cc3)=NN2c2ccc(Cl)cc2)cc(OC)c1OC (configuration not stated)
A: 82.9

Q: // lookup growth for CCOC(=O)C(CSC(c1ccccc1)(c1ccccc1)c1ccccc1)NC(=O)C(CSC(c1ccccc1)(c1ccccc1)c1ccccc1)NC(c1ccccc1)(c1ccccc1)c1ccccc1 (configuration not stated)
A: 93.5

Q: // lookup growth for CN(C)CCN1C(=O)c2cccc3c(-c4ccc5ncn(C6CCCCC6)c5c4)ccc(c23)C1=O
A: 25.1

Q: // lookup growth for COc1ccc(-c2nc3sc(-c4ccccc4)c(-c4ccccc4)n3c2/C=C/C(=O)c2ccccn2)cc1
A: 84

Q: // lookup growth for CCOC(=O)N1C/C(=C/c2ccc(F)cc2)C(=O)/C(=C/c2ccc(F)cc2)C1
A: -18.7

Q: // lookup growth for N#Cc1ncc(Br)c(NC2CCCCCC2)n1
A: 97.1

Q: // lookup growth for COC(=O)c1ccc(=O)oc1
A: 101

Q: // lookup growth for CC(=O)N1C/C(=C/c2ccc(Cl)cc2)C(=O)/C(=C/c2ccc(Cl)cc2)C1
A: -39.5

---

- System: KM12 colon
- test_method_notes: NCI-60 one-dose screen, 48 h (100 = growth as untreated, 0 = no growth, -100 = all killed)
- applied_conditions: 10 µM
This is part of a sample that, as a whole, favours compounds with a hit. Of some 83,000 tested, about 20% had one in any assay.
Give growth for every item shown.
Give your result in % as a bare value.

Q: // lookup growth for O=C(/C=C/c1cc2ccccc2[nH]c1=O)c1ccc2c(c1)OCO2
A: 92.3

Q: // lookup growth for O=C1OCC2=C1C(c1cccc(Cl)c1)c1cc3c(cc1N2CCO)OCCO3 (stereo unspecified)
A: -32.8

Q: // lookup growth for Cc1c(Cl)cccc1NC(=O)c1sc2nc3c(cc2c1N)C(=O)CCC3
A: 11.1

Q: // lookup growth for CC12O[C@H](C[C@@H](O)[C@H]1O)n1c3ccccc3c3c4c(c5c6ccccc6n2c5c31)C(=O)N(CCCN)C4=O
A: 38

Q: // lookup growth for CCN1CCN(c2nc3ccccc3c3c(=O)c4ccccc4sc23)CC1
A: 36.1

Q: // lookup growth for Cc1cc(Nc2ccc(Cl)cc2)nc(NCCCNc2ccnc3cc(Cl)ccc23)n1
A: -33.4

---

- Tested on: TK-10 renal
- test_method_notes: NCI-60 one-dose screen, 48 h
- applied_conditions: 10 µM
- Experimental: Growth inhibition of the TK-10 human tumor cell line is measured as a screen for anti-cancer activity. Cells are grown in 96 well plates and exposed to the test compound for 48 hours. Compounds are tested at a single concentration, which is 10^-5 M for most compounds. The reported endpoint is percent growth (GI% or GIPRCNT), where numbers from 0 - 100% represent growth inhibition, and numbers from -100% - 0 represent cell death. For example, a value of 40 represents 60% growth inhibition. […]
About 83,000 compounds went through this panel and 20% of them were active in at least one assay; those are over-represented in the sample as a whole. Calls of active or inactive are those of the source. Rule for the calls: active = growth percent below 10; inactive = the rest.
Pick one and only one: active, inactive

Q: Could you please tell me the result logged for CC(C)(Cl)CCC1=C(Cl)C(=O)c2ccccc2C1=O in this assay?
A: inactive

Q: Could you please tell me the result logged for COc1cc(-c2nc(Nc3nc4ccccc4s3)[nH]c(=O)c2C#N)cc(OC)c1O in this assay?
A: inactive

Q: Could you please tell me the result logged for CSc1cc(SC)ncn1 in this assay?
A: inactive

Q: Could you please tell me the result logged for N=c1c2c(-c3ccccc3)c(-c3ccccc3)n(Cc3ccccc3)c2ncn1CCCO in this assay?
A: inactive

Q: Could you please tell me the result logged for Cc1c(Cl)cccc1NC(=O)c1sc2nc3c(cc2c1N)C(=O)CCC3 in this assay?
A: inactive

Q: Could you please tell me the result logged for O=C(O)C(SC(C(=O)O)c1ccccc1)c1ccccc1 (centres undefined) in this assay?
A: inactive

Q: Could you please tell me the result logged for COc1cc(-c2cc(/C=C/C(=O)c3ccc(N)cc3)[nH]n2)cc(OC)c1OC in this assay?
A: active

Q: Could you please tell me the result logged for COc1ccc2c(c1)nc(N)c1c3cccnc3cn21 in this assay?
A: inactive

Q: Could you please tell me the result logged for CCCCCCCC(C)NCCO (centres undefined) in this assay?
A: inactive

Q: Could you please tell me the result logged for C[C@]12CC[C@@H]3c4ccc(O)cc4C[C@@H](O)[C@H]3[C@@H]1CC[C@@H]2O in this assay?
A: inactive

Q: Could you please tell me the result logged for C#Cc1ccc(-n2c(/C=C/c3ccc(O)cc3)nc3ncccc3c2=O)cc1 in this assay?
A: inactive

Q: Could you please tell me the result logged for O=C(Nc1ccc(Cl)c(Cl)c1)Nc1c(Oc2ccc(Cl)c(Cl)c2)ccc(Cl)c1S(=O)(=O)O in this assay?
A: inactive

Q: Could you please tell me the result logged for COc1cccc(C2C3=C(COC3=O)N(CCO)c3cc(OC)ccc32)c1 (centres undefined) in this assay?
A: inactive

Q: Could you please tell me the result logged for CCCN(CCC)CCC(O)c1cc2c(c3ccccc13)CCCC2 (centres undefined) in this assay?
A: inactive
